Cited source: patent US20240182536A1

Target: T1, IL-18 receptors on HEK-Blue IL-18 reporter cells (InvivoGen) (UniProt Q13478 19-541; O95256 20-599)
T1 sequence (looked up) 1: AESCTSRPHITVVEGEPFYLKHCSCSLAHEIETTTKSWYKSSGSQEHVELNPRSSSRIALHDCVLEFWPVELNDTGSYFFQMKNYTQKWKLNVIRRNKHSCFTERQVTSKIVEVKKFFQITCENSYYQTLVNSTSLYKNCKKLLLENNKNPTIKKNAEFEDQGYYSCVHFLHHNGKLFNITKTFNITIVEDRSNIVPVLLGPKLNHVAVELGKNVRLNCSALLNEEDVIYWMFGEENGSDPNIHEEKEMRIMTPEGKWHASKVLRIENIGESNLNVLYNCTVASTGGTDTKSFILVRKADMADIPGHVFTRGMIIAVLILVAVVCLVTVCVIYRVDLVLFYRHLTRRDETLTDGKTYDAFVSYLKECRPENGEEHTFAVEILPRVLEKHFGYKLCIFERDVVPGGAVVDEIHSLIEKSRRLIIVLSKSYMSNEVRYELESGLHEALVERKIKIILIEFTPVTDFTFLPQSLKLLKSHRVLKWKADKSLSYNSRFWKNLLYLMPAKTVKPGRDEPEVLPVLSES
T1 sequence (looked up) 2: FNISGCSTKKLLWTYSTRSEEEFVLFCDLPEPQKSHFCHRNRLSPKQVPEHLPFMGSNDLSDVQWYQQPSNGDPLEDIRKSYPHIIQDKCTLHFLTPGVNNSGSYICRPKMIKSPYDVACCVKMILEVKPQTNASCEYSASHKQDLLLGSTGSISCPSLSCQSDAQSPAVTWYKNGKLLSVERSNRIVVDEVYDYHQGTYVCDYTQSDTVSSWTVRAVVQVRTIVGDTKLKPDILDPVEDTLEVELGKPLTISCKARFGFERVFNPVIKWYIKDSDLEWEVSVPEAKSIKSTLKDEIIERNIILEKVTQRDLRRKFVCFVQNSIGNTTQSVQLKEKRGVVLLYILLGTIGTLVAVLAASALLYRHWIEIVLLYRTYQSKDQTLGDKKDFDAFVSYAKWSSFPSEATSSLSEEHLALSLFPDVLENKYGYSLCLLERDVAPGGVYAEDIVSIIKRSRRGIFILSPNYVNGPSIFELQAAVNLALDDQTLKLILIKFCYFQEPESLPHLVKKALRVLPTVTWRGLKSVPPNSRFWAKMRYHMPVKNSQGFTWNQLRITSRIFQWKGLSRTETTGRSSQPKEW
Experiment: cell-based or functional assay
valueKind: HEK-Blue Activity Assay Ec50 (pM), -hu IL-18BP
Answer format: numeric, pM implied, no suffix.

For the binder IL-18 variant G3T, M60K, D157E (ligand) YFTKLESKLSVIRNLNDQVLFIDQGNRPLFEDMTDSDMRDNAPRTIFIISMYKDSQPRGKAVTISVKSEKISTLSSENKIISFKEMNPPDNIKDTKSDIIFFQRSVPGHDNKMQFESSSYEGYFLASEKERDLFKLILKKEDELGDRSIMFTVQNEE , give its reported HEK-Blue Activity Assay Ec50 (pM), -hu IL-18BP.
0.62

Return reported HEK-Blue Activity Assay Ec50 (pM), -hu IL-18BP. Input binder: IL-18 variant G3R, K53S (ligand) YFRKLESKLSVIRNLNDQVLFIDQGNRPLFEDMTDSDMRDNAPRTIFIISMYSDSQPRGMAVTISVKSEKISTLSSENKIISFKEMNPPDNIKDTKSDIIFFQRSVPGHDNKMQFESSSYEGYFLASEKERDLFKLILKKEDELGDRSIMFTVQNED
0.31

// Input: IL-18 variant G3E, K53S (ligand) YFEKLESKLSVIRNLNDQVLFIDQGNRPLFEDMTDSDMRDNAPRTIFIISMYSDSQPRGMAVTISVKSEKISTLSSENKIISFKEMNPPDNIKDTKSDIIFFQRSVPGHDNKMQFESSSYEGYFLASEKERDLFKLILKKEDELGDRSIMFTVQNED . Output its HEK-Blue Activity Assay Ec50 (pM), -hu IL-18BP only.
2.69

Please give the documented HEK-Blue Activity Assay Ec50 (pM), -hu IL-18BP of IL-18 variant G3V, M60K (ligand) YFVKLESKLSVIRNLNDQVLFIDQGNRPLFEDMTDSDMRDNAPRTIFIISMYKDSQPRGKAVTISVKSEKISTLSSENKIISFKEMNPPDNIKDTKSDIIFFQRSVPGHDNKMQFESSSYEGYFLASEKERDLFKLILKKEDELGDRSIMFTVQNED
0.12
